Source of measurements: the supplement of paper PMC10567573

B1: ZNF449 (parent)
chain: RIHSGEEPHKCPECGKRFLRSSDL

Variants of: B1
Assay: protein stability index of a GFP-peptide fusion (GPS, HEK-293T) (PSI 1-6); higher = more stable;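 further: lentivirally expressed fusions sorted by FACS into six bins by GFP to DsRed ratio, PSI derived from sequencing read proportions per bin multiplied by bin number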
Details: c terminus: a fixed tail appended
READOUT_LABEL: protein stability index
Returns: the value as a bare number; no unit string appended.

• C14P = 4.06

Answer with reported protein stability index of "L19S"
4.05

Answer with reported protein stability index of "S21I"
3.04
